- experimentalTarget: prothrombin (Homo sapiens, UniProt P00734 P00734:44-622)
- assayExplanation: filter; 50 nM prothrombin
- condition: tags: Athens Research
Entries and their measured binding signal follow.
Give the value in % bound but do not write % bound after it.

TCCCGTGATCTCTGGGGTAACGTCTTGGTGTGGGTGGCTGAGGATCGATC (ssDNA) [AMX(399)_F1] = 19.4

Q: State the recorded binding signal for this entry: TCCCCGATGTGTCAGCCTAGGGTGGTTAGGGTGGTGGCTGAGGATCGATC (ssDNA) [AMX(398)_C5]
A: 19.2

Q: Field entry: TCCCATTGATCTGTGGTGGTTTTGTGGTTTGGGTGGCTGAGGATCGATC (ssDNA) [AMX(398)_A2]
A: 28.4

Q: Query TTCCTGTCGATAAGGGGTATTATAGTGGTGTGGGTGGCTGAGGATCGATC (ssDNA) [AMX(399)_C9] next
A: 10.9
